Experiment: MDCK cell permeability test
Details: dog, MDCK, Apparent permeability coefficient A→B, 90 min; 2nd line of the compound (condition not given)
Quick reference: Papp A→B at 90 min of the listed items.
MEASUREMENT_KIND: Papp A→B at 90 min (×10⁻⁶ cm/s)

COMPOUND | MEASUREMENT_KIND | ASSAY_VALUE
CCOc1cccc(Nc2nn(C)c3c2Cc2cc(OCC)c(OCC(=O)NO)cc2-3)c1 [LL-02] | Papp A→B at 90 min | 12.4
CCOc1cccc(Nc2nn(C)c3c2Cc2cc(OCC)c(OCC(N)=O)cc2-3)c1 [LL-01] | Papp A→B at 90 min | 16

----------
Experiment: In vivo pharmacokinetic test, drug concentration in blood plasma by LC-MS/MS
Design: species or system SD rats
Conditions: male, SD, rat, plasma, iv, 1 mg/kg, SD rats, intravenous 1 mg/kg, 0.5 h, animal 101M

SMILES_REPRESENTATION | concentration at 0.5 h / ng/mL
CCOc1cccc(Nc2nn(C)c3c2Cc2cc(OCC)c(OCC(N)=O)cc2-3)c1 | 1760

----------
Assay: MDCK cell permeability test
Conditions: dog, MDCK, Apparent permeability coefficient B→A, 90 min; 1st line of the compound (condition not given)

SMILES_REPRESENTATION | ENDPOINT_UNIT | Papp B→A at 90 min
CCOc1cccc(Nc2nn(C)c3c2Cc2cc(OCC)c(OCC(N)=O)cc2-3)c1 | nm/s | 8
CCOc1cccc(Nc2nn(C)c3c2Cc2cc(OCC)c(OCC(=O)NO)cc2-3)c1 | nm/s | 326

----------
Experiment: In vivo pharmacokinetic test, drug concentration in blood plasma by LC-MS/MS
Parameters: species or system SD rats
Conditions: male, SD, rat, plasma, iv, 1 mg/kg, male SD rats, single intravenous 1 mg/kg, animal 103M; read-out: AUCINF—pred
From the text: 2. Test animal: SD rats, which are 284-304 g before the test, and bought from Shanghai Xipuer-Bikai laboratory animal Co., Ltd. with production license No. SCXK (Hu) 2013-0016, and laboratory animal certificate Nos. 2008001658223 and 2008001658296. […] The content of compound LL-01 in SD rat blood plasma is detected by use of LC-MS/MS method. […]
MEASUREMENT_KIND: AUC(0-inf) (ng·h/mL)

COMPOUND | MEASUREMENT_KIND | ENDPOINT_UNIT | ASSAY_VALUE
CCOc1cccc(Nc2nn(C)c3c2Cc2cc(OCC)c(OCC(N)=O)cc2-3)c1 [LL-01] | AUC(0-inf) | ng·h/mL | 3280

----------
Test: In vivo pharmacokinetic test, drug concentration in blood plasma by LC-MS/MS
Design: species or system SD rats
Conditions: male, SD, rat, plasma, iv, 1 mg/kg, male SD rats, single intravenous 1 mg/kg, animal 103M; read-out: MRTINF—pred

SMILES_REPRESENTATION | MRT inf
CCOc1cccc(Nc2nn(C)c3c2Cc2cc(OCC)c(OCC(N)=O)cc2-3)c1 | 1.21 h

----------
Test: In vivo pharmacokinetic test, drug concentration in blood plasma by LC-MS/MS
Design: species or system SD rats
Conditions: SD, rat, plasma, po, 10 mg/kg, SD rats, oral 10 mg/kg, 1 h, animal 203M
MEASUREMENT_KIND: concentration at 1 h (µg/mL)

SMILES_REPRESENTATION | ASSAY_VALUE
CCOc1cccc(Nc2nn(C)c3c2Cc2cc(OCC)c(OCC(N)=O)cc2-3)c1 | 0.778
